- subjectOfTest: Androgen receptor (Homo sapiens)
- protocolNotes: qHTS assay to identify small molecule agonists of the androgen receptor (AR) signaling pathway (AID 743036); on activation: on the % scale 0 is the no-effect control and ±100 the full control effect
- settings: HEK293 AR-UAS-bla GripTite, beta-lactamase FRET ratio, 16 h; series mostly up to 62.4 µM
Results filed as inconclusive are left out. The source made the active and inactive calls. The call rests on the fitted dose curve; in most records, active means well fitted activation curve with a large enough effect in the signal ratio in the repeat runs, with a control signal flat (not every such curve was filed as active); inconclusive means weak or mixed curves, or effect the other way; inactive means no such curve, though single readings can be large or run the other way; the % refers to the signal ratio.
Write down the outcome that applies. Available outcomes: t = active, f = inactive

Worked cases, answers included:
compound: CC(=O)Nc1ccc(N)cc1
category: f
//
compound: CCCC(=O)O[C@]1(C(=O)COC(=O)CC)CC[C@H]2[C@@H]3CCC4=CC(=O)CC[C@]4(C)[C@H]3[C@@H](O)C[C@@]21C
category: t
//
compound: ON(Cc1ccccc1)Cc1ccccc1
category: f

INPUT: I would be grateful if you could indicate the recorded call for NCC1CCCC(CN)C1 (stereo not given) .
OUTPUT: f

INPUT: I would be grateful if you could indicate the recorded call for CSc1ccc(Oc2ccc(S(N)(=O)=O)cc2CN(C)C)cc1C .
OUTPUT: f

INPUT: I would be grateful if you could indicate the recorded call for Nc1ccc(Cl)cc1[N+](=O)[O-] .
OUTPUT: f

INPUT: I would be grateful if you could indicate the recorded call for C[N+](C)(C)CCOC(N)=O .
OUTPUT: f

INPUT: I would be grateful if you could indicate the recorded call for Oc1ccc(Nc2ccccc2)cc1 .
OUTPUT: f

INPUT: I would be grateful if you could indicate the recorded call for CO[C@H]1C=CO[C@@]2(C)Oc3c(C)c(O)c4c(O)c(c5c(c4c3C2=O)=NC2(CCN(CC(C)C)CC2)N=5)NC(=O)/C(C)=C\C=C/[C@H](C)[C@H](O)[C@@H](C)[C@@H](O)[C@@H](C)[C@H](OC(C)=O)[C@@H]1C .
OUTPUT: f

INPUT: I would be grateful if you could indicate the recorded call for OC(CCCN1CCCCC1)(c1ccccc1)c1ccccc1 .
OUTPUT: f

INPUT: I would be grateful if you could indicate the recorded call for CCOC(=O)CC(=O)C(=O)OCC .
OUTPUT: f

INPUT: I would be grateful if you could indicate the recorded call for CCOC(=O)/C=C/C(=O)O .
OUTPUT: f

INPUT: I would be grateful if you could indicate the recorded call for COc1cc2ncnc(Nc3ccc(F)c(Cl)c3)c2cc1OCCCN1CCOCC1 .
OUTPUT: f

INPUT: I would be grateful if you could indicate the recorded call for C=CC(=C)CCCC(C)(C)OC(C)=O .
OUTPUT: f

INPUT: I would be grateful if you could indicate the recorded call for CC(C)CCCC(=O)O .
OUTPUT: f

---

- subjectOfTest: Estrogen receptor (Homo sapiens) (UniProt P03372)
- Sequence (P03372 whole entry, looked up): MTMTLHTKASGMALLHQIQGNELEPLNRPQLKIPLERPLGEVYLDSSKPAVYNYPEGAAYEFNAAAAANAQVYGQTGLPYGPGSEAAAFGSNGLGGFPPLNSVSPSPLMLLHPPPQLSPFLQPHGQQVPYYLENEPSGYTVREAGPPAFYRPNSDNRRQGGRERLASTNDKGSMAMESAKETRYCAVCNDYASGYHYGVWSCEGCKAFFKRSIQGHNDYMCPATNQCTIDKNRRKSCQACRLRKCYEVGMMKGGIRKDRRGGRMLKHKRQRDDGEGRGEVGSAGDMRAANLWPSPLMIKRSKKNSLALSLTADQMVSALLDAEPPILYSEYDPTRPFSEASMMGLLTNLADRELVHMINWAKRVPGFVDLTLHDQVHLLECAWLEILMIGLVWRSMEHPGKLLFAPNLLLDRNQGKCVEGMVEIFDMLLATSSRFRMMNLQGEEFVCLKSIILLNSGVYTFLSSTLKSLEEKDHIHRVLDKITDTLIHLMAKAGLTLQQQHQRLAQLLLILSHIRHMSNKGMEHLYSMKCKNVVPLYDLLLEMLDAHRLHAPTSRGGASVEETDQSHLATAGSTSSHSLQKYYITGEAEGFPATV
- protocolNotes: qHTS assay to identify small molecule agonists of the estrogen receptor alpha (ER-alpha) signaling pathway using the BG1 cell line (AID 743079); further: nearly all actives have a fitted effect of over 20% in size; further: potency means the concentration at half of the fitted maximal effect; on activation: on the % scale 0 is the no-effect control and ±100 the full control effect
- settings: BG1Luc4E2 cells, ERE-luciferase agonist, 22 h
Results filed as inconclusive are left out. Calls of active or inactive are those of the source. The call rests on the fitted dose curve; in most records, active means well fitted activation curve with a large enough effect in the repeat runs; inconclusive means weak or mixed curves, or effect the other way; inactive means no such curve, though single readings can be large or run the other way.
outcomeMeasure: Potency

Look over these answered cases.
molecule: CCCCCCCCCOC(C)=O
Potency: inactive

molecule: Nc1ccc(S(=O)(=O)O)c(N)c1
Potency: inactive

molecule: CC(CCO)CCc1ccccc1 (stereo unspecified)
Potency: inactive

molecule: O=C(CCCN1CCN(c2ccc(F)cc2)CC1)NC1c2ccccc2CSc2ccccc21 (stereo unspecified)
Potency: inactive

molecule: Oc1ccc(Nc2ccccc2)cc1
Potency: 30.6 µM (active)

Consider now this further molecule.
Memo: CCCCCCCCCCCCCCCCBr , reported Potency: inactive

---

- protocolNotes: qHTS assay for small molecule agonists of the p53 signaling pathway - cell viability (AID 651633);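 further: p53RE-bla HCT reporter cells with a stable beta-lactamase p53 reporter; on the % scale 0 is the no-effect control and ±100 the full control effect; nearly all actives have a fitted effect of over 30% in size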
- settings: p53RE-bla HCT-116 viability, ATP luminescence, 16 h; series mostly up to 83.3 µM
Records with an inconclusive call do not appear. Calls of active or inactive are those of the source. The call rests on the fitted dose curve.
Write down the outcome that applies. Available outcomes: yes (active), no (inactive)

Worked cases, answers included:
compound: CCOC(=O)CC(=O)C(=O)OCC
category: no

compound: O=C(CS)OCCOC(=O)CS
category: no

compound: O=C(NCCCN1CCOCC1)c1ccc(Cl)cc1
category: no

INPUT: I would be grateful if you could indicate the recorded call for CCC(=O)OC/C=C/c1ccccc1 .
OUTPUT: no

---

- protocolNotes: qHTS assay for identifying genotoxic compounds that show differential cytotoxicity against isogenic chicken DT40 cell lines with known DNA damage response pathways - Rad54/Ku70 mutant cell line (AID 743015); further: nearly all actives have a fitted effect of over 60% in size; further: potency means the concentration at half of the fitted maximal effect
- settings: DT40 Rad54/Ku70 mutant viability, CellTiter-Glo, 40 h; series mostly up to 66.8 µM
Results filed as inconclusive are left out. Activity calls are given as the source filed them. Calls follow the shape of the dose curve; as a rule, active = well fitted cell-killing curve with a large enough effect in the repeat runs; inconclusive = weak or mixed curves; inactive = no such curve, though single readings can be large or run the other way.
outcomeMeasure: Potency

compound: COc1ccccc1N=Nc1c(S(=O)(=O)O)cc2cc(S(=O)(=O)O)cc(NC(C)=O)c2c1O
Potency: 14.4 µM (active)
--
compound: COc1cc2c(cc1OC)-c1cc(=Nc3c(C)cc(C)cc3C)n(C)c(=O)n1CC2
Potency: 6.68 µM (active)
--
compound: Cc1ccc(/C=N/n2c(-c3ccccc3)csc2=S)cc1
Potency: 29.8 µM (active)
--
compound: CC1CN(c2cc3c(cc2F)c(=O)c(C(=O)O)cn3-c2ccc(F)cc2F)CCN1 (configuration not stated)
Potency: inactive
--
compound: CCCCC(CC)C(=O)OCCOCCOCCOCCOC(=O)C(CC)CCCC (configuration not stated)
Potency: 30.6 µM (active)

Memo: CC(=O)Nc1ccc(N)cc1 , reported Potency: inactive

Memo: CC(C)(C)C(=O)C(Oc1ccc(Cl)cc1)n1ccnc1 (configuration not stated) , reported Potency: 21.1 µM (active)

Memo: Cc1cc2nc3ccc(=[N+](C)C)cc-3sc2cc1N , reported Potency: 0.596 µM (active)

Memo: CC1=CC(=O)CC(C)(C)C1(O)/C=C/C(C)=C\C(=O)O (configuration not stated) , reported Potency: inactive

Memo: OCCSc1ccccc1 , reported Potency: inactive

Memo: O=C(CCCCCCC(=O)Nc1ccccc1)NO , reported Potency: 1.5 µM (active)

Memo: Nc1ccc(Cl)cc1[N+](=O)[O-] , reported Potency: inactive

---

- subjectOfTest: Estrogen receptor beta (Homo sapiens) (UniProt Q92731)
- Sequence (Q92731 whole entry, looked up): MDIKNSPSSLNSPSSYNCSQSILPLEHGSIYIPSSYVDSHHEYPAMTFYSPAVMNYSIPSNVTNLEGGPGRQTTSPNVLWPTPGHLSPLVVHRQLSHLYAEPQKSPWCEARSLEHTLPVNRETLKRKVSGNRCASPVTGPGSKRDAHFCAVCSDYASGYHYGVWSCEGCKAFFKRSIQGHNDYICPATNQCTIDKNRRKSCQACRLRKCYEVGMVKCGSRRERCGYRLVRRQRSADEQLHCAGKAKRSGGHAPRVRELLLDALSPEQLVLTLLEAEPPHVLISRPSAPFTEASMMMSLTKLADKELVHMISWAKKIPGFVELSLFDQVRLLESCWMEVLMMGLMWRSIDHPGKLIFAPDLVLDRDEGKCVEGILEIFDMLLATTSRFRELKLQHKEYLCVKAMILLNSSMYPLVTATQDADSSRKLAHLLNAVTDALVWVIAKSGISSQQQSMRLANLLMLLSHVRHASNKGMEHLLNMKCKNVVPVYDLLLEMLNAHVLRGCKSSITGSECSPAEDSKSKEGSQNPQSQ
- protocolNotes: qHTS assay to identify small molecule antagonists of the estrogen receptor beta (ER-beta) signaling pathway (AID 1259378)
- settings: ER-beta-UAS-bla HEK293T, beta-lactamase FRET ratio, 16 h; series mostly up to 92.4 µM
Records with an inconclusive call do not appear. Active and inactive are the calls of the source. Calls follow the shape of the dose curve; as a rule, active = well fitted inhibition curve with a large enough effect in the signal ratio in the repeat runs (not every such curve was filed as active); inconclusive = weak or mixed curves, or effect the other way; inactive = no such curve, though single readings can be large or run the other way; the % refers to the signal ratio.
Write down the outcome that applies. Available outcomes: yes (active), no (inactive)

Worked cases, answers included:
compound: C[Si](NC1CCCCC1)(NC1CCCCC1)NC1CCCCC1
subjectOfTest: Estrogen receptor beta (Homo sapiens) (UniProt Q92731)
category: no
--
compound: CC(=O)Oc1ccc(C(=C2CCCCC2)c2ccc(OC(C)=O)cc2)cc1
subjectOfTest: Estrogen receptor beta (Homo sapiens) (UniProt Q92731)
category: yes
--
compound: CCC(=O)OC/C=C/c1ccccc1
subjectOfTest: Estrogen receptor beta (Homo sapiens) (UniProt Q92731)
category: no
--
compound: Cc1nc2ccccn2c(=O)c1CCN1CCC(C(=O)c2ccc(F)cc2)CC1
subjectOfTest: Estrogen receptor beta (Homo sapiens) (UniProt Q92731)
category: no

Now turn to the next compound.
INPUT: I would be grateful if you could indicate the recorded call for Cc1ccc(/C=N/n2c(-c3ccccc3)csc2=S)cc1 .
OUTPUT: yes

---

- protocolNotes: qHTS assay to test for compound auto fluorescence at 535 nm (green) in HepG2 cells (AID 720675); further: on the % scale 0 is the no-effect control and ±100 the full control effect
- settings: green autofluorescence 485/535 nm, 1 h; series mostly up to 91.3 µM
Activity calls are given as the source filed them. The call rests on the fitted dose curve; in most records, active means well fitted curve in the direction sought with a large enough effect in the repeat runs; inconclusive means weak or mixed curves; inactive means flat fitted curve, though single readings scatter.
outcomeMeasure: fluorescence, % of fluorescein control

smilesData: CCCCOC(=O)CCS
fluorescence, % of fluorescein control: inactive
--
smilesData: CC(=O)OCC(=O)[C@@]12OC(C)(C)O[C@@H]1C[C@H]1[C@@H]3C[C@H](F)C4=CC(=O)C=C[C@]4(C)[C@@]3(F)[C@@H](O)C[C@@]12C
fluorescence, % of fluorescein control: -0.0438% [at 18.6 µM] (inactive)
--
smilesData: CC(C)CCCCCCOC(=O)CCCCC(=O)OCCCCCCC(C)C
fluorescence, % of fluorescein control: inactive
--
smilesData: CCc1cccc(N(C)C(N)=Nc2cccc3ccccc23)c1
fluorescence, % of fluorescein control: inactive
--
smilesData: CCOC(=O)CC(=O)C(=O)OCC
fluorescence, % of fluorescein control: inactive

Memo: C=CC(=C)CCCC(C)(C)OC(C)=O , reported fluorescence, % of fluorescein control: inactive

Memo: CCCOCCOCCO , reported fluorescence, % of fluorescein control: inactive

Memo: O=C(O)Cc1ccc(-c2ccccc2)cc1 , reported fluorescence, % of fluorescein control: -0.0175% [at 18.6 µM] (inactive)

Memo: O=S(=O)(c1ccccc1)c1ccc(Cl)cc1 , reported fluorescence, % of fluorescein control: inactive
